Tested on: STAPHYLOCOCCUS AUREUS CMX 553
Assay: In vitro antibacterial activity, MIC, BHI agar dilution
Format: cell-based
Settings: S. aureus CMX 553, unit assumed
outcomeMeasure: MIC (µg/mL)
// note: answer is a bare numeric in µg/mL

Exercise: Checklist item: MIC tested on STAPHYLOCOCCUS AUREUS CMX 553, entry CC[C@H]1OC(=O)[C@H](C)C(=O)[C@H](C)[C@@H](O[C@@H]2O[C@H](C)C[C@H](N(C)C)[C@H]2O)[C@](C)(OC)C[C@@H](C)C2=NC3CN(CCc4ccc(NC(C)=O)cc4)CC3N3C(=O)O[C@@]1(C)[C@H]3[C@H]2C (some centres unmarked) , value?
Key: 0.78

Exercise: Kindly state the measured MIC obtained for CC[C@H]1OC(=O)[C@H](C)C(=O)[C@H](C)[C@@H](O[C@@H]2O[C@H](C)C[C@H](N(C)C)[C@H]2O)[C@](C)(OC)C[C@@H](C)C2=N[C@H](COCc3ccc(OC)cc3)CN3C(=O)O[C@@]1(C)[C@H]3[C@H]2C with STAPHYLOCOCCUS AUREUS CMX 553.
Key: 0.39

###

Tested on: STREPTOCOCCUS BOVIS A-5169
Test: In vitro antibacterial activity, MIC, BHI agar dilution
Assay type: cell-based
Conditions: S. bovis A-5169, unit assumed
outcomeMeasure: MIC (µg/mL)
Express your answer in µg/mL, writing the number without its unit.

Exercise: Query: MIC; subject: CC[C@H]1OC(=O)[C@H](C)C(=O)[C@H](C)[C@@H](O[C@@H]2O[C@H](C)C[C@H](N(C)C)[C@H]2O)[C@](C)(OC)C[C@@H](C)C2=N[C@@H]3CN(Cc4ccncc4)C[C@@H]3N3C(=O)O[C@@]1(C)[C@H]3[C@H]2C [Example 25]
Key: 0.1

Exercise: Quick check: MIC of CC[C@H]1OC(=O)[C@H](C)C(=O)[C@H](C)[C@@H](O[C@@H]2O[C@H](C)C[C@H](N(C)C)[C@H]2O)[C@](C)(OC)C[C@@H](C)C2=NC[C@H](CSCc3ccccc3)N3C(=O)O[C@@]1(C)[C@H]3[C@H]2C [Example 66] ?
Key: 0.01

Exercise: Please look up its MIC: CC[C@H]1OC(=O)[C@H](C)C(=O)[C@H](C)[C@@H](O[C@@H]2O[C@H](C)C[C@H](N(C)C)[C@H]2O)[C@](C)(OC)C[C@@H](C)C2=N[C@H](COCc3ccccc3)CN3C(=O)O[C@@]1(C)[C@H]3[C@H]2C [Example 88]
Key: 0.02

Exercise: Request the reported MIC associated with CC[C@H]1OC(=O)[C@H](C)[C@@H](O[C@H]2C[C@@](C)(OC)[C@@H](O)[C@H](C)O2)[C@H](C)[C@@H](O[C@@H]2O[C@H](C)C[C@H](N(C)C)[C@H]2O)[C@](C)(O)C[C@@H](C)C(=O)[C@H](C)[C@@H](O)[C@]1(C)O [Ery A, Erythromycin A, reference compound]
Key: 0.05

Exercise: // lookup MIC for CC[C@H]1OC(=O)[C@H](C)C(=O)[C@H](C)[C@@H](O[C@@H]2O[C@H](C)C[C@H](N(C)C)[C@H]2O)[C@](C)(OC)C[C@@H](C)C2=NC3CN(CCc4ccccc4[N+](=O)[O-])CC3N3C(=O)O[C@@]1(C)[C@H]3[C@H]2C (some centres unmarked) [Example 119]
Key: 0.02

Exercise: Need MIC of C#CCN1CC2N=C3[C@H](C)C[C@@](C)(OC)[C@H](O[C@@H]4O[C@H](C)C[C@H](N(C)C)[C@H]4O)[C@@H](C)C(=O)[C@@H](C)C(=O)O[C@H](CC)[C@@]4(C)OC(=O)N(C2C1)[C@@H]4[C@H]3C (some centres unmarked) [Example 117] , thanks.
Key: 0.05

Exercise: Sample CC[C@H]1OC(=O)[C@H](C)C(=O)[C@H](C)[C@@H](O[C@@H]2O[C@H](C)C[C@H](N(C)C)[C@H]2O)[C@](C)(OC)C[C@@H](C)C2=N[C@H](CN(C)Cc3ccccc3)CN3C(=O)O[C@@]1(C)[C@H]3[C@H]2C [Example 58] — what was its MIC?
Key: 0.01
